Cited source for all entries: paper doi:10.1101/2021.09.28.462164v1

Molecular target: HsHK2 (Homo sapiens, UniProt P52789, L776F)
Sequence (P52789 whole entry L776F): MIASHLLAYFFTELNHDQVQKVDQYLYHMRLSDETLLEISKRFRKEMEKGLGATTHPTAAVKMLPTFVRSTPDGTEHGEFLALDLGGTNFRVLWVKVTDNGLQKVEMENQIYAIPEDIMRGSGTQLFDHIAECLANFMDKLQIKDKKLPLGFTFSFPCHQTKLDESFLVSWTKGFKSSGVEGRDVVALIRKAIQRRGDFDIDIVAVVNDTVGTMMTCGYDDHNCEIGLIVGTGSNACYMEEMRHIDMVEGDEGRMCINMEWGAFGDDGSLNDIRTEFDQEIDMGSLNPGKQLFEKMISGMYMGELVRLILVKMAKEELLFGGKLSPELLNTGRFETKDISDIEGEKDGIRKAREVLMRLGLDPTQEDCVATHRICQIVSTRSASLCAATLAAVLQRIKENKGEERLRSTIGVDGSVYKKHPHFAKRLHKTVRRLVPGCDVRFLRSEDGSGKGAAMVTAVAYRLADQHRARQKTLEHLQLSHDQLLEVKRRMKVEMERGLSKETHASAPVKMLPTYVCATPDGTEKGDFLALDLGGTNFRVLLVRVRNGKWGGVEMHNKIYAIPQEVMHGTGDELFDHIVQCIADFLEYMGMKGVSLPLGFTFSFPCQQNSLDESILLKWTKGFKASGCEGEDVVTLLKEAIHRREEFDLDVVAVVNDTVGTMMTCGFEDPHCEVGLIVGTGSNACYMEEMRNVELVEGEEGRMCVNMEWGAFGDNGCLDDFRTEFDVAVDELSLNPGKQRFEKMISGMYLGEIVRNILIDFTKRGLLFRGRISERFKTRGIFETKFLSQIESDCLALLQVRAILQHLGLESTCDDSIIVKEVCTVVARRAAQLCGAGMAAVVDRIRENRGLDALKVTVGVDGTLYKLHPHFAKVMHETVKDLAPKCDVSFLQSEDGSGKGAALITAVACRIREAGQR
Settings: 30 C; extract in 50 mM Tris-HCl pH 7.5; described as competitive inhibitor
readout kind: pIC50
// pIC50 is dimensionless: -log10 of concentration (M)

I would be grateful if you could share the reported pIC50 for O=P(O)(O)OC[C@H]1OC(O)[C@H](O)[C@@H](O)[C@@H]1O (stereo partly shown) [glucose-6-phosphate] .
3.59

* * *

Biological target: HsHK1 (Homo sapiens, UniProt P19367)
Sequence (P19367 whole entry): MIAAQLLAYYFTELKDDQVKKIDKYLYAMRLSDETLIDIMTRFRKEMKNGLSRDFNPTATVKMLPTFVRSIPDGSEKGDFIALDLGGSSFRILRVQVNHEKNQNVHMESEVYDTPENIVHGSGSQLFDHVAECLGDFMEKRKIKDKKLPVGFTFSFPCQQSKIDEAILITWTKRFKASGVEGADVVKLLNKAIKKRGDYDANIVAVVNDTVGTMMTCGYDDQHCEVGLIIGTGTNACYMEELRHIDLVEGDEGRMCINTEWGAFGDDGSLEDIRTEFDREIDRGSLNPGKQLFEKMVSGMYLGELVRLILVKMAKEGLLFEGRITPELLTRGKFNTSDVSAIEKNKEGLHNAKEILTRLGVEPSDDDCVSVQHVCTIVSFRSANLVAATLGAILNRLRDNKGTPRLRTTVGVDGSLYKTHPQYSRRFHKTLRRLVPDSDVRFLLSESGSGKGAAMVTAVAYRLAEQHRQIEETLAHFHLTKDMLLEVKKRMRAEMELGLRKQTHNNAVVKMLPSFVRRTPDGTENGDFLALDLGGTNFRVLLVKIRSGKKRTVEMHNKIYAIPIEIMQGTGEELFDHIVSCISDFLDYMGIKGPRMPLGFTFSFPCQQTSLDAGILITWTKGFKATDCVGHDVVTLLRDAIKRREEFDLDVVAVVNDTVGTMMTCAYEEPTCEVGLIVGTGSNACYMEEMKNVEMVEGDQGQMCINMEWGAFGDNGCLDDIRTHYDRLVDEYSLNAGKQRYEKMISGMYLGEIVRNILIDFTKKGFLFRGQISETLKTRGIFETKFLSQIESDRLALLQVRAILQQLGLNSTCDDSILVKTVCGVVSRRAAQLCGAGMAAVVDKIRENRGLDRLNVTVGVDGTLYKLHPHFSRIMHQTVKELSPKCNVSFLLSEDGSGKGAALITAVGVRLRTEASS
Details: 30 C; extract in 50 mM Tris-HCl pH 7.5; described as competitive inhibitor
readout kind: IC50
Answer format: value, then unit.

I would be grateful if you could share the reported IC50 for O=P(O)(O)OC[C@H]1OC(O)[C@H](O)[C@@H](O)[C@@H]1O (stereo partly shown) [glucose-6-phosphate] .
38 µM

* * *

Biological target: HsHK1 (Homo sapiens, UniProt P19367, G679A)
Sequence (P19367 whole entry G679A): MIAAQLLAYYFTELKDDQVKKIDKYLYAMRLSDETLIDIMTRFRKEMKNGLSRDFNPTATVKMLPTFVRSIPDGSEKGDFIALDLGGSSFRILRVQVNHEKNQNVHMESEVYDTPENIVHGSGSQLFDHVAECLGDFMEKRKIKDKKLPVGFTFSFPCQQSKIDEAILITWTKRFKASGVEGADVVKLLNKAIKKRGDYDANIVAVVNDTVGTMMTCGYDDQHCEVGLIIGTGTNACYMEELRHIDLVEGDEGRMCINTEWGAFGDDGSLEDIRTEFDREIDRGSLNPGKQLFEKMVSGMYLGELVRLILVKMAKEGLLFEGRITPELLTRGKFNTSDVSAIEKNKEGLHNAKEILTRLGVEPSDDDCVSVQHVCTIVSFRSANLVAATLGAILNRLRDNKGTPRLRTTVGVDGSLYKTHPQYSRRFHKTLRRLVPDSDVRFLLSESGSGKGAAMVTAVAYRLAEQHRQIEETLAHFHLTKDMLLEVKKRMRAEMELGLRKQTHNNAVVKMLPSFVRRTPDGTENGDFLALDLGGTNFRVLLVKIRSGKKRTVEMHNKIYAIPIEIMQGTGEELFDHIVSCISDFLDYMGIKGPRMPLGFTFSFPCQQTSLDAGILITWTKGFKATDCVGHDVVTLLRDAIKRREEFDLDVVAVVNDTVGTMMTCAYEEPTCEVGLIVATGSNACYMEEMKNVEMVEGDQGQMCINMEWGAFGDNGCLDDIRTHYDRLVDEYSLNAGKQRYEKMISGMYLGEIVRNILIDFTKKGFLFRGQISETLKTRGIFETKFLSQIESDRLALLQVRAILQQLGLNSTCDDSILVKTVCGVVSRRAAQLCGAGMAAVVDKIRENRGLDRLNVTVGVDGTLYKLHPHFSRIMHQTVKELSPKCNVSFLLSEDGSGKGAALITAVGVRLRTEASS
Conditions: 30 C; extract in 50 mM Tris-HCl pH 7.5; described as competitive inhibitor
readout kind: IC50 (µM)
Return type: number; implicit unit µM.

I would be grateful if you could share the reported IC50 for O=P(O)(O)OC[C@H]1OC(O)[C@H](O)[C@@H](O)[C@@H]1O (stereo partly shown) [glucose-6-phosphate] .
320
